Quick reference: AC40 of the listed items.
# Tested on: S. cerevisiae SKN7-toxicity growth rescue, plate reader
# test_details: Yeast SKN7 toxicity growth rescue counterscreen, Saccharomyces cerevisiae, plate reader, dose confirmatory (AID 624258);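 note: growth read after three days of incubation at 30 °C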

Below are worked cases with known answers.
{"columns": ["line_notation", "test_system", "AC40"],
 "data": [
  ["CC(C)(c1cc(Br)c(O)c(Br)c1)c1cc(Br)c(O)c(Br)c1", "S. cerevisiae SKN7-toxicity growth rescue, plate reader", "1260 nM"],
  ["CSc1cccc(NC(=O)/C=C/c2cccc(Cl)c2)c1", "S. cerevisiae SKN7-toxicity growth rescue, plate reader", "4520 nM"]
]}

Let us move to another entry and its AC40.
Task item: Which measured AC40 value corresponds to O=Cc1cc(N=Nc2ccccc2Cl)ccc1O ?
Reply: 446 nM

----------
# Test system: S. cerevisiae SKN7-toxicity growth rescue, plate reader
# test_details: Yeast SKN7 toxicity growth rescue counterscreen, Saccharomyces cerevisiae, plate reader, dose confirmatory (AID 624258);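 note: growth read after three days of incubation at 30 °C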
observation_type: AC40

{"columns": ["compound", "AC40"],
 "data": [
  ["CCOc1ccc(/C=C2/SC(=O)NC2=S)cc1", "1.24 µM"],
  ["COC(=O)c1cc(Sc2cccc(Cl)c2Cl)ccn1", "14.7 µM"]
]}

Task item: Which measured AC40 value corresponds to Cc1ccc(S(=O)(=O)N/N=C\c2ccc([N+](=O)[O-])o2)cc1C ?
Reply: 10.5 µM

Task item: Cool, now COc1ccc(CSCC(=O)Nc2ccc(S(=O)(=O)N3CCCCCC3)cc2)cc1
Reply: 6.93 µM

Task item: Cool, now COc1cccc(CNC(=O)COc2ccc(C(=O)c3ccccc3)cc2)c1
Reply: 18 µM

Task item: Cool, now Cc1ccc(-c2nc3ccc(Cl)cc3c(=O)n2O)cc1
Reply: 0.914 µM

----------
# Test system: S. cerevisiae SKN7-toxicity growth rescue, plate reader
# test_details: Yeast SKN7 toxicity growth rescue counterscreen, Saccharomyces cerevisiae, plate reader, dose confirmatory (AID 624258);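 note: growth read after three days of incubation at 30 °C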
Quick reference: AC40 of the listed items.

Below are worked cases with known answers.
{"columns": ["molecule", "AC40"],
 "data": [
  ["N#C/C(=C\\c1cccc(Oc2ccccc2)c1)C(=O)N1CCOCC1", "8.47 µM"],
  ["CCCC1CCC(c2ccc(/C(N)=N/O)cc2)CC1 (centres undefined)", "0.476 µM"],
  ["Cc1ccc(N(CN2C(=O)c3ccccc3C2=O)C(=O)c2ccc([N+](=O)[O-])cc2[N+](=O)[O-])cc1", "7.16 µM"],
  ["O=C(Oc1cccc(NC(=O)c2ccccc2Cl)c1)c1ccc([N+](=O)[O-])cc1", "14.1 µM"],
  ["Cc1ccc(S(=O)(=O)N2[C@@H](c3ccc(Cl)cc3)C(C(=O)O)=CC[C@H]2c2ccc(Cl)c(Cl)c2)cc1", "3.31 µM"]
]}

Task item: Which measured AC40 value corresponds to Cc1ccc(S(=O)(=O)N2CCOC23CCN(C(=O)c2cc(Cl)ccc2Cl)CC3)cc1 ?
Reply: 7.25 µM

Task item: Cool, now CC(=O)c1c(C)oc2c1C(=O)c1ccccc1C2=O
Reply: 1.92 µM

Task item: Cool, now COc1ccc(C(=O)c2c(C(F)(F)F)oc3c2C(=O)c2ccccc2C3=O)cc1OC
Reply: 14.3 µM

Task item: Cool, now CCC(=O)NC(c1cc(Cl)c2cccnc2c1O)C(C)C (centres undefined)
Reply: 3.15 µM
